Target: human P450 11A1 (Homo sapiens)
Sequence (P05108 41-521 limits assumed): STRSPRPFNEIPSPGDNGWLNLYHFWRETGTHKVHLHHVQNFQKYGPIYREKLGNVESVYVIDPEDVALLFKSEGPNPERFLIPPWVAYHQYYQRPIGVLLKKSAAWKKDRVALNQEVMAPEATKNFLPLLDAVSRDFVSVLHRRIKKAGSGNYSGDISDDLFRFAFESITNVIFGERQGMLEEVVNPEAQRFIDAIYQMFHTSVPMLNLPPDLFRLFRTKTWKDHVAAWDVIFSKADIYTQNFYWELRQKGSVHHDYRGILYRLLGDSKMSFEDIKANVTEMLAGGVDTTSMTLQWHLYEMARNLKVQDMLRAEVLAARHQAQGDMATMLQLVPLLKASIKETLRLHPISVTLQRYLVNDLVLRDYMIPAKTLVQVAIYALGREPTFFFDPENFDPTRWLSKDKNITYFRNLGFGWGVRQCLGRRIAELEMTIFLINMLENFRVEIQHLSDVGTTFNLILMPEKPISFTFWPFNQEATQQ
Sequence (P00257 59-186 partner): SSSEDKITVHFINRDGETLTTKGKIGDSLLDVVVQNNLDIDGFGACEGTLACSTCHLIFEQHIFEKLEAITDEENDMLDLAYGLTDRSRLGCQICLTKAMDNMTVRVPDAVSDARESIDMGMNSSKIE
Assay: Single-turnover kinetics of P450 11A1 with [1,2-3H]-cholesterol (radio-HPLC)
Assay type: biochemical
Parameters: M A S T R S P R P F N E I P S P G D N; Met-Ala (N-terminal start residues in place of the transit peptide and Ile40) (N); made in house; host or cells: E. coli (P450 11A1 in C41(DE3); Adx and AdR in E. coli)
Settings: 10-fold excess (high) Adx, time 7.5 s
Description: In this reaction, a 5 μM complex of P450 11A1 and 4.5 μM cholesterol was assembled, and Adx was added at either equimolar (low, 5 μM) or 10-fold excess (high, 50 μM) concentrations (along with 10 μM AdR). The complex was diluted 2-fold (with 5 mM NADPH) in the apparatus to initiate the reaction, which was quenched at variable times. The products of the reaction were extracted and quantified by radio-HPLC. […] (The analysis of kinetic modeling is described below.) […]
MEASURED ATTRIBUTE: concentration in single-turnover reaction (µM)

[
  {
    "COMPOUND": "CC(C)CC[C@@H](O)[C@@H](C)[C@H]1CC[C@H]2[C@@H]3CC=C4C[C@@H](O)CC[C@]4(C)[C@H]3CC[C@]12C [22R-OH Chol, 22R-hydroxycholesterol]",
    "SYSTEM NAME": "human P450 11A1 (Homo sapiens)",
    "READOUT NUMBER": 0.1648
  },
  {
    "COMPOUND": "CC(C)CCC[C@@H](C)[C@H]1CC[C@H]2[C@@H]3CC=C4C[C@@H](O)CC[C@]4(C)[C@H]3CC[C@]12C",
    "SYSTEM NAME": "human P450 11A1 (Homo sapiens)",
    "READOUT NUMBER": 2.508
  },
  {
    "COMPOUND": "CC(=O)[C@H]1CC[C@H]2[C@@H]3CC=C4C[C@@H](O)CC[C@]4(C)[C@H]3CC[C@]12C",
    "SYSTEM NAME": "human P450 11A1 (Homo sapiens)",
    "READOUT NUMBER": 1.618
  },
  {
    "COMPOUND": "CC(C)CC[C@@H](O)[C@](C)(O)[C@H]1CC[C@H]2[C@@H]3CC=C4C[C@@H](O)CC[C@]4(C)[C@H]3CC[C@]12C [20R,22R-(OH)2 Chol, (20R,22R)-Cholest-5-ene-3β,20,22-triol]",
    "SYSTEM NAME": "human P450 11A1 (Homo sapiens)",
    "READOUT NUMBER": 0.2095
  }
]

----------
biological target: human P450 11A1 (Homo sapiens, UniProt P05108); experiment: Single-turnover kinetics of P450 11A1 with [1,2-3H]-cholesterol (radio-HPLC); type: biochemical; design: M A S T R S P R P F N E I P S P G D N; Met-Ala (N-terminal start residues in place of the transit peptide and Ile40) (N); made in house; host or cells: E. coli (P450 11A1 in C41(DE3); Adx and AdR in E. coli); conditions: 10-fold excess (high) Adx, time 60 s
Catalogue of concentration in single-turnover reaction values
MEASURED ATTRIBUTE: concentration in single-turnover reaction (µM)

[
  {
    "COMPOUND": "CC(C)CCC[C@@H](C)[C@H]1CC[C@H]2[C@@H]3CC=C4C[C@@H](O)CC[C@]4(C)[C@H]3CC[C@]12C",
    "READOUT NUMBER": 0.3162
  },
  {
    "COMPOUND": "CC(=O)[C@H]1CC[C@H]2[C@@H]3CC=C4C[C@@H](O)CC[C@]4(C)[C@H]3CC[C@]12C",
    "READOUT NUMBER": 4.116
  },
  {
    "COMPOUND": "CC(C)CC[C@@H](O)[C@@H](C)[C@H]1CC[C@H]2[C@@H]3CC=C4C[C@@H](O)CC[C@]4(C)[C@H]3CC[C@]12C [22R-OH Chol, 22R-hydroxycholesterol]",
    "READOUT NUMBER": 0.06822
  },
  {
    "COMPOUND": "CC(C)CC[C@@H](O)[C@](C)(O)[C@H]1CC[C@H]2[C@@H]3CC=C4C[C@@H](O)CC[C@]4(C)[C@H]3CC[C@]12C [20R,22R-(OH)2 Chol, (20R,22R)-Cholest-5-ene-3β,20,22-triol]",
    "READOUT NUMBER": 0
  }
]

----------
biological target: human P450 11A1 (Homo sapiens); construct: M A S T R S P R P F N E I P S P G D N; Met-Ala (N-terminal start residues in place of the transit peptide and Ile40) (N); made in house; host or cells: E. coli C41(DE3) with GroES/GroEL, vector pET23C(+); assay: Steady-state spectral (type I) binding titration, Kd determination; settings: Kd, (+) Adx, 0.10 μM P450 11A1, 10 cm cuvette, with 0.10 μM Adx, quadratic fit

[
  {
    "COMPOUND": "CC(C)CC[C@@H](O)[C@@H](C)[C@H]1CC[C@H]2[C@@H]3CC=C4C[C@@H](O)CC[C@]4(C)[C@H]3CC[C@]12C [22R-OH Chol, 22R-hydroxycholesterol]",
    "Kd, nM": 20
  }
]

----------
Catalogue of Km values
target: human P450 11A1 (Homo sapiens, UniProt P05108); experiment: Steady-state conversion of sterols to pregnenolone by reconstituted P450 11A1 (UPLC-MS of dansyl hydrazone); format: biochemical; design: M A S T R S P R P F N E I P S P G D N; Met-Ala (N-terminal start residues in place of the transit peptide and Ile40) (N); made in house; host or cells: E. coli (P450 11A1 in C41(DE3); Adx and AdR in E. coli); settings: 0.25 μM P450, 0.5 μM AdR, 10 μM Adx, 37 °C

[
  {
    "COMPOUND": "CC(C)CC[C@H](O)[C@](C)(O)[C@H]1CC[C@H]2[C@@H]3CC=C4C[C@@H](O)CC[C@]4(C)[C@H]3CC[C@]12C [20R,22S-(OH)2 Chol, (20R,22S)-Cholest-5-ene 3β,20,22-triol]",
    "MEASURE UNIT": "µM",
    "Km": 15
  },
  {
    "COMPOUND": "CC(C)CCC[C@@H](C)[C@H]1CC[C@H]2[C@@H]3CC=C4C[C@@H](O)CC[C@]4(C)[C@H]3CC[C@]12C",
    "MEASURE UNIT": "µM",
    "Km": 38
  },
  {
    "COMPOUND": "CC(C)CC[C@@H](O)[C@](C)(O)[C@H]1CC[C@H]2[C@@H]3CC=C4C[C@@H](O)CC[C@]4(C)[C@H]3CC[C@]12C [20R,22R-(OH)2 Chol, (20R,22R)-Cholest-5-ene-3β,20,22-triol]",
    "MEASURE UNIT": "µM",
    "Km": 36
  },
  {
    "COMPOUND": "CC(C)CC[C@@H](O)[C@@H](C)[C@H]1CC[C@H]2[C@@H]3CC=C4C[C@@H](O)CC[C@]4(C)[C@H]3CC[C@]12C [22R-OH Chol, 22R-hydroxycholesterol]",
    "MEASURE UNIT": "µM",
    "Km": 29
  }
]

----------
biological target: human P450 11A1 (Homo sapiens, UniProt P05108); assay: Single-turnover kinetics of P450 11A1 with [1,2-3H]-cholesterol (radio-HPLC); type: biochemical; set-up: M A S T R S P R P F N E I P S P G D N; Met-Ala (N-terminal start residues in place of the transit peptide and Ile40) (N); made in house; host or cells: E. coli (P450 11A1 in C41(DE3); Adx and AdR in E. coli); conditions: 10-fold excess (high) Adx, time 0.5 s
MEASURED ATTRIBUTE: concentration in single-turnover reaction (µM)

[
  {
    "COMPOUND": "CC(C)CCC[C@@H](C)[C@H]1CC[C@H]2[C@@H]3CC=C4C[C@@H](O)CC[C@]4(C)[C@H]3CC[C@]12C [Cholesterol]",
    "SYSTEM NAME": "human P450 11A1 (Homo sapiens, UniProt P05108)",
    "READOUT NUMBER": 4.022
  },
  {
    "COMPOUND": "CC(C)CC[C@@H](O)[C@@H](C)[C@H]1CC[C@H]2[C@@H]3CC=C4C[C@@H](O)CC[C@]4(C)[C@H]3CC[C@]12C [22R-OH Chol, 22R-hydroxycholesterol]",
    "SYSTEM NAME": "human P450 11A1 (Homo sapiens, UniProt P05108)",
    "READOUT NUMBER": 0.3411
  },
  {
    "COMPOUND": "CC(=O)[C@H]1CC[C@H]2[C@@H]3CC=C4C[C@@H](O)CC[C@]4(C)[C@H]3CC[C@]12C [Pregnenolone]",
    "SYSTEM NAME": "human P450 11A1 (Homo sapiens, UniProt P05108)",
    "READOUT NUMBER": 0
  },
  {
    "COMPOUND": "CC(C)CC[C@@H](O)[C@](C)(O)[C@H]1CC[C@H]2[C@@H]3CC=C4C[C@@H](O)CC[C@]4(C)[C@H]3CC[C@]12C [20R,22R-(OH)2 Chol, (20R,22R)-Cholest-5-ene-3β,20,22-triol]",
    "SYSTEM NAME": "human P450 11A1 (Homo sapiens, UniProt P05108)",
    "READOUT NUMBER": 0.1366
  }
]

Data provenance is paper PMC10716780.
